TEST TARGET: human CD39 (Homo sapiens, UniProt P49961)
Sequence (P49961 whole entry): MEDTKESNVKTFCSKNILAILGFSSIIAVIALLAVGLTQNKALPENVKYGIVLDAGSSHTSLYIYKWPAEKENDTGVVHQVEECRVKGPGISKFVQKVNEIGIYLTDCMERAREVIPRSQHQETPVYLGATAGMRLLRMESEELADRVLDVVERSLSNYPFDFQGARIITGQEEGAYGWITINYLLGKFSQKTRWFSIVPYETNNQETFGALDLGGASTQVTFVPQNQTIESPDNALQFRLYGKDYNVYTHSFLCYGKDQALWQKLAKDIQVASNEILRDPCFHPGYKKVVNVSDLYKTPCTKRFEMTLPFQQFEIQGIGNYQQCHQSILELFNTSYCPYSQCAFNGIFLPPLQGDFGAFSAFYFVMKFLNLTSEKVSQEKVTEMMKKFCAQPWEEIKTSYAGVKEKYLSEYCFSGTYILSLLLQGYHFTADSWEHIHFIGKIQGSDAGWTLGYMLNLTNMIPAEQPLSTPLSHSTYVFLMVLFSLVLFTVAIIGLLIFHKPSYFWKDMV
EXPERIMENT SUMMARY: Fluorescence capillary electrophoresis assay for CD39
Format: biochemical
Design: Human umbilical cord membrane preparations (250 ng) natively expressing high amounts of CD39; from tissue; host or cells: human umbilical cord membranes
CONDITION SET: Ki ± SEM, fluorescent substrate PSB-017621A 0.5 µM; human umbilical cord membrane preparation; n = 3; Cheng-Prusoff
pKi: −log10 of the molar value.

| MOLECULE | pKi |
| --- | --- |
| Nc1ncnc2c1ncn2[C@@H]1O[C@H](COP(=O)(O)CP(=O)(O)O)[C@@H](O)[C@H]1O [Compound 42, α,β-Methylene-ADP, reference compound] | < 5.00 |

---

TEST TARGET: UniProtKB P49961
EXPERIMENT SUMMARY: Fluorescence capillary electrophoresis assay for CD39
Format: biochemical
Design: Human umbilical cord membrane preparations (250 ng) natively expressing high amounts of CD39; from tissue; host or cells: human umbilical cord membranes
CONDITION SET: fluorescent substrate PSB-017621A 0.5 µM; human umbilical cord membrane preparation; n = 3; Cheng-Prusoff; read-out: Ki ± SEM
pKi: −log10 of the molar value.
Listed here are compounds together with their documented pKi.

| COMPOUND | pKi |
| --- | --- |
| O=P(O)(OC[C@H]1O[C@@H](n2cnc3c(NCc4ccccc4)ncnc32)[C@H](O)[C@@H]1O)OP(=O)(O)C(Br)(Br)P(=O)(O)O [Compound 29] | < 5.00 |
| CCCCNc1nc2c(N(C)C)ncnc2n1[C@@H]1O[C@H](COP(=O)(O)OP(=O)(O)C(Br)(Br)P(=O)(O)O)[C@@H](O)[C@H]1O [Compound 34] | ~5.00 |
| Nc1ncnc2c1ncn2[C@@H]1O[C@H](COP(=O)(O)CP(=O)(O)OP(=O)(O)O)[C@@H](O)[C@H]1O [Compound 41, α,β-Methylene-ATP, reference compound] | 6.20 |
| CCCCSc1nc2c(NC)ncnc2n1[C@@H]1O[C@H](COP(=O)(O)OP(=O)(O)C(Br)(Br)P(=O)(O)O)[C@@H](O)[C@H]1O [Compound 36] | < 5.00 |

Where do the numbers come from? From paper PMC7508162.
